test: Pharmacokinetics after oral administration of LJF extract in CCl4-induced liver injury model rats; format: in vivo, Sprague-Dawley rats; settings: result in words, oral LJF extract, rat plasma
OBSERVATION_TYPE: AUC0–∞, model group compared with the normal group

| MOLECULE | ASSAY_RESULT |
| --- | --- |
| O=C(/C=C/c1ccc(O)c(O)c1)O[C@@H]1C[C@](O)(C(=O)O)C[C@@H](O)[C@H]1O [5-CQA, 5-caffeoylquinic acid] | increased |
| O=C(/C=C/c1ccc(O)c(O)c1)O[C@@H]1[C@H](O)C[C@@](O)(C(=O)O)C[C@@H]1O (stereo in doubt) [4-CQA, 4-caffeoylquinic acid] | increased |
| O=C(O)c1ccc(O)c(O)c1 [PA, protocatechuic acid] | increased |

====

assay: Pharmacokinetics after oral administration of LJF extract in normal rats; type: in vivo, Sprague-Dawley rats; conditions: male, Sprague-Dawley, rat, in vivo, po, 15.75 g/kg
OBSERVATION_TYPE: AUC(0-inf) (ng·h/mL)

| COMPOUND | UNIT_ANNOTATION | ASSAY_RESULT |
| --- | --- | --- |
| C=C[C@H]1[C@H](O[C@@H]2O[C@H](CO)[C@@H](O)[C@H](O)[C@H]2O)OC=C(C(=O)OC)[C@H]1CC(=O)O | ng·h/mL | 7610 |
| C=C[C@H]1[C@H](O[C@@H]2O[C@H](CO)[C@@H](O)[C@H](O)[C@H]2O)OC=C2C(=O)OCC[C@H]21 [Sweroside] | ng·h/mL | 10000 |

====

The entries below are paired with their reported MRT last.
test: Pharmacokinetics after oral administration of LJF extract in CCl4-induced liver injury model rats; format: in vivo, Sprague-Dawley rats; details: male, Sprague-Dawley, rat; liver injury model group (M, CCl4), oral LJF ethanol extract 15.75 g/kg, plasma, mean ± SD, n = 6; read-out: MRT0–t

| MOLECULE | MRT last [h] |
| --- | --- |
| O=C(/C=C/c1ccc(O)c(O)c1)O[C@H]1C[C@](O)(C(=O)O)C[C@@H](O)[C@H]1O [3-CQA, 3-caffeoylquinic acid] | 13.4 |
| O=C(O)c1ccc(O)c(O)c1 [PA, protocatechuic acid] | 26.6 |
| O=C(/C=C/c1ccc(O)c(O)c1)O[C@@H]1[C@H](O)C[C@@](O)(C(=O)O)C[C@@H]1O (stereo in doubt) [4-CQA, 4-caffeoylquinic acid] | 10.1 |

====

test: Pharmacokinetics after oral administration of LJF extract in normal rats; format: in vivo, Sprague-Dawley rats; settings: male, Sprague-Dawley, rat, in vivo, po, 15.75 g/kg
OBSERVATION_TYPE: AUC(0-t)

| COMPOUND | OBSERVATION_TYPE | ASSAY_RESULT |
| --- | --- | --- |
| C=C[C@H]1[C@H](O[C@@H]2O[C@H](CO)[C@@H](O)[C@H](O)[C@H]2O)OC=C2C(=O)OCC[C@H]21 [Sweroside] | AUC(0-t) | 9690 ng·h/mL |
| C=C[C@H]1[C@H](O[C@@H]2O[C@H](CO)[C@@H](O)[C@H](O)[C@H]2O)OC=C(C(=O)OC)[C@H]1CC(=O)O [Secoxyloganin] | AUC(0-t) | 6230 ng·h/mL |

====

experiment: Pharmacokinetics after oral administration of LJF extract in normal rats; format: in vivo, Sprague-Dawley rats; details: male, Sprague-Dawley, rat, in vivo, po, 15.75 g/kg

| COMPOUND | UNIT_ANNOTATION | Tmax |
| --- | --- | --- |
| C=C[C@H]1[C@H](O[C@@H]2O[C@H](CO)[C@@H](O)[C@H](O)[C@H]2O)OC=C(C(=O)OC)[C@H]1CC(=O)O | min | 27.6 |
| C=C[C@H]1[C@H](O[C@@H]2O[C@H](CO)[C@@H](O)[C@H](O)[C@H]2O)OC=C2C(=O)OCC[C@H]21 [Sweroside] | min | 31.8 |

From: paper PMC9739780
